// data source = ChEMBL document CHEMBL4152251

Target entity: Receptor-histidine kinase AgrC (Staphylococcus aureus)
Method summary: Inhibition of AIP-stimulated quorum sensing system AgrC activation in Staphylococcus aureus RN10829 harboring P3:blaZ fusion assessed as reduction in beta-lactamse activity at 5 ug/ml preincubated with organism followed by AIP addition measured after 45 mins by nitrocefin hydrolysis assay
Calls of active or inactive are those of the source. The rule behind the calls is not given here. Bridge positions count the residues as written; N and C are the ends. Peptide text beside a SMILES is read from it. * marks the point of attachment. Heptanoyl = CCCCCCC(=O)*
Labels: YES for active, NO for inactive

{"columns": ["Compound", "Class name"],
 "data": [
  ["CCCCCCC(=O)N[C@@H]1CNC(=O)[C@@H](C)NC(=O)[C@@H](C)NC(=O)[C@@H](CC(C)C)NC(=O)[C@@H](Cc2ccccc2)NC1=O", "YES"],
  ["CCCCCCC(=O)N[C@H]1CNC(=O)[C@H](CC(C)C)NC(=O)[C@@H](C)NC(=O)[C@@H](CC(C)C)NC(=O)[C@H](Cc2ccccc2)NC1=O", "NO"],
  ["CCCCCCC(=O)N[C@@H]1CNC(=O)[C@@H](CC(C)C)NC(=O)[C@@H](C)NC(=O)[C@@H](CC(C)C)NC(=O)[C@@H](Cc2c[nH]c3ccccc23)NC1=O", "NO"],
  ["CCCCCCCC(=O)N[C@@H]1CNC(=O)[C@@H](CC(C)C)NC(=O)[C@@H](C)NC(=O)[C@@H](CC(C)C)NC(=O)[C@@H](Cc2ccccc2)NC1=O", "YES"],
  ["CCCCCCC(=O)N[C@@H]1CNC(=O)[C@@H](CC(C)C)NC(=O)[C@@H](C)NC(=O)[C@@H](CCC(C)C)NC(=O)[C@@H](Cc2ccccc2)NC1=O", "YES"],
  ["CCCCCCC(=O)N[C@@H]1CNC(=O)[C@@H](CCC(C)C)NC(=O)[C@@H](C)NC(=O)[C@@H](CC(C)C)NC(=O)[C@@H](Cc2ccccc2)NC1=O", "YES"],
  ["CCCCCCC(=O)N[C@@H]1CNC(=O)[C@@H](CC(C)C)NC(=O)[C@H](C)NC(=O)[C@H](CC(C)C)NC(=O)[C@@H](Cc2ccccc2)NC1=O", "NO"],
  ["CCCCCCC(=O)N[C@H]1CCCCNC(=O)[C@H](CC(C)C)NC(=O)[C@H](C)NC(=O)[C@H](CC(C)C)NC(=O)[C@H](Cc2ccccc2)NC1=O (Heptanoyl-KFLAL; lactam 1-C)", "NO"],
  ["CCCCCCC(=O)N[C@@H]1CNC(=O)[C@@H](CC(C)C)NC(=O)[C@@H](C)NC(=O)[C@@H](Cc2ccccc2)NC(=O)[C@@H](Cc2ccccc2)NC1=O", "YES"],
  ["CCCCCCCCCCCC(=O)N[C@@H]1CNC(=O)[C@@H](CC(C)C)NC(=O)[C@@H](C)NC(=O)[C@@H](CC(C)C)NC(=O)[C@@H](Cc2ccccc2)NC1=O", "YES"],
  ["CCCCCCC(=O)N[C@H]1CNC(=O)[C@H](CC(C)C)NC(=O)[C@H](C)NC(=O)[C@H](CC(C)C)NC(=O)[C@H](Cc2ccccc2)NC1=O", "YES"],
  ["CCCCCCC(=O)N[C@@H]1CNC(=O)[C@@H](CC(C)C)NC(=O)[C@@H](C)NC(=O)[C@@H](CC(C)C)NC(=O)[C@@H](Cc2ccccc2)NC1=O", "YES"]
]}

###

Target entity: Receptor-histidine kinase AgrC (Staphylococcus aureus)
Method summary: Inhibition of AIP-stimulated quorum sensing system AgrC activation in Staphylococcus aureus RN10829 harboring P3:blaZ fusion assessed as reduction in beta-lactamse activity preincubated with organism followed by AIP addition measured after 45 mins by nitrocefin hydrolysis assay
Quick reference for IC50 among some compounds

{"columns": ["Molecular string", "IC50 [nM]"],
 "data": [
  ["CCCCCCC(=O)N[C@@H]1CNC(=O)[C@@H](CCC(C)C)NC(=O)[C@@H](C)NC(=O)[C@@H](CC(C)C)NC(=O)[C@@H](Cc2ccccc2)NC1=O", 913],
  ["CCCCCC(=O)N[C@@H]1CNC(=O)[C@@H](CC(C)C)NC(=O)[C@@H](C)NC(=O)[C@@H](CC(C)C)NC(=O)[C@@H](Cc2ccccc2)NC1=O", 1430],
  ["CCCCCCC(=O)N[C@@H]1CNC(=O)[C@@H](CC(C)C)NC(=O)[C@@H](C)NC(=O)[C@@H](Cc2ccccc2)NC(=O)[C@@H](Cc2ccccc2)NC1=O", 739]
]}

###

Target entity: Receptor-histidine kinase AgrC (Staphylococcus aureus)
Method summary: Inhibition of AIP-stimulated quorum sensing system AgrC activation in Staphylococcus aureus RN10829 harboring P3:blaZ fusion assessed as reduction in beta-lactamse activity at 5 ug/ml preincubated with organism followed by AIP addition measured after 45 mins by nitrocefin hydrolysis assay
Activity calls are given as the source filed them. The rule behind the calls is not given here.
Quantity name: inhibition

{"columns": ["Molecular string", "Quantity name", "Test result"],
 "data": [
  ["CCCCCCC(=O)N[C@@H]1CNC(=O)[C@@H](CC(C)C)NC(=O)[C@@H](C)NC(=O)[C@@H](CC(C)C)NC(=O)[C@@H](CCc2ccccc2)NC1=O", "inhibition", "inactive"],
  ["CCCCCCC(=O)N[C@@H]1CNC(=O)[C@@H](CC(C)C)NC(=O)[C@@H](C)NC(=O)[C@@H](CC(C)C)NC(=O)[C@@H](Cc2cccc3ccccc23)NC1=O", "inhibition", "inactive"]
]}
